Source of measurements: paper PMC9718554

Let's look at some molecules and their measured remaining activity at 2500 µM.
# Assay Target: E. coli DdlB enzyme (D-alanine:D-alanine ligase) (Escherichia coli, UniProt P07862)
# Construct: made in house; host or cells: E. coli
# Run Description: biochemical
# Experimental Context: tested concentration 2.5 mM; read-out: DdlB RA
Field format: number, assumed %, no unit text.

The examples below pair each entry with its known result.
INSERT INTO assay_data (molecule, observed_result) VALUES
  ('Cc1cc(C)c2ccc(C(=O)O)cc2n1', 88),
  ('Nc1ccc2ncc(C(=O)O)c(O)c2c1', 42),
  ('NS(=O)(=O)c1ccc2c(c1)CCN2', 80),
  ('CN(C)S(=O)(=O)Cc1ccccc1F', 95),
  ('CC1(O)CCC12CCN(C(=O)CC1CC1)CC2 (stereo not shown)', 75),
  ('O=S(=O)(O)c1ccc2[nH]nnc2c1', 93);

remaining activity at 2500 µM recorded for this molecule, CC(=O)N1CCC(O)C2CCCCC21 (stereo not shown) , is 99

remaining activity at 2500 µM recorded for this molecule, O=S(=O)(O)CCOc1ccccc1 , is 100

remaining activity at 2500 µM recorded for this molecule, CCCC(CCC)n1nc(O)cc1N , is 100

remaining activity at 2500 µM recorded for this molecule, COc1ccc(-n2c(C)ccc2C)nc1 , is 22
